- System: Potassium-transporting ATPase (Canis familiaris)
- Assay Overview: Percent inhibition of gastric proton-pump enzyme H+/K+ ATPase was determined at 50 uM
- Applied Conditions: Canis lupus familiaris, Stomach
Readout Name: inhibition (%)
All answers are understood in %, so give the number only.

Recorded inhibition, per entry:
{"Smiles String": "Cc1[nH]ccc1-c1csc(N=C(N)N)n1", "Tested On": "Potassium-transporting ATPase (Canis familiaris)", "inhibition [%]": 96}
{"Smiles String": "Cc1[nH]ccc1-c1csc(NC(=N)NCc2ccccc2)n1.O=C(O)/C=C\\C(=O)O", "Tested On": "Potassium-transporting ATPase (Canis familiaris)", "inhibition [%]": 93}
{"Smiles String": "N=C(NCc1ccccc1)Nc1nc(-c2c[nH]c3ccc(F)cc23)cs1", "Tested On": "Potassium-transporting ATPase (Canis familiaris)", "inhibition [%]": 96}
{"Smiles String": "N=C(N)Nc1nc(-c2ccc(N)cc2)cs1", "Tested On": "Potassium-transporting ATPase (Canis familiaris)", "inhibition [%]": 63}
{"Smiles String": "Cc1ccc(-c2csc(N=C(N)N)n2)n1C", "Tested On": "Potassium-transporting ATPase (Canis familiaris)", "inhibition [%]": 20}
{"Smiles String": "N=C(NCc1ccccc1)Nc1nc(-c2ccc[nH]2)cs1", "Tested On": "Potassium-transporting ATPase (Canis familiaris)", "inhibition [%]": 81}
{"Smiles String": "Cl.N=C(N)Nc1nc(-c2ccc(O)c(O)c2)cs1", "Tested On": "Potassium-transporting ATPase (Canis familiaris)", "inhibition [%]": 100}
{"Smiles String": "Nc1nc(-c2c[nH]c(C=O)c2)cs1", "Tested On": "Potassium-transporting ATPase (Canis familiaris)", "inhibition [%]": 9}
{"Smiles String": "Cc1[nH]ccc1-c1nc(N=C(N)N)sc1C.Cl", "Tested On": "Potassium-transporting ATPase (Canis familiaris)", "inhibition [%]": 102}
{"Smiles String": "N=C(N)Nc1nc(-c2cc3cc(F)ccc3[nH]2)cs1", "Tested On": "Potassium-transporting ATPase (Canis familiaris)", "inhibition [%]": 87}

inhibition for CCOC(=O)c1cc(-c2csc(N=C(N)N)n2)[nH]c1C is 91

inhibition for COc1cccc(-c2csc(NC(=N)NCc3ccccc3)n2)c1 is 85

inhibition for CN(C)Cc1cc(-c2csc(N=C(N)N)n2)c[nH]1 is 94

inhibition for Cc1cc(-c2csc(NC(=N)NCc3ccc(Cl)cc3)n2)c[nH]1 is 95

====

- Tested on: Potassium-transporting ATPase (Canis familiaris)
- Assay Overview: Percent inhibition of gastric proton-pump enzyme H+/K+ ATPase was determined at 50 uM
- Applied Conditions: Canis lupus familiaris, Stomach
Each record's inhibition is compared with bottom bin: < 60%; middle bin: ≥ 60% and < 90%; top bin: ≥ 90% to give its class.

Please review the following examples before continuing.
{"Smiles String": "Cc1[nH]c(-c2csc(N=C(N)N)n2)cc1CN(C)C", "Tested On": "Potassium-transporting ATPase (Canis familiaris)", "Category Label": "middle bin"}
{"Smiles String": "N=C(N)Nc1nc(-c2ccccc2O)cs1", "Tested On": "Potassium-transporting ATPase (Canis familiaris)", "Category Label": "bottom bin"}
{"Smiles String": "N=C(NCc1ccccc1)Nc1nc(-c2cccc(Cl)c2)cs1", "Tested On": "Potassium-transporting ATPase (Canis familiaris)", "Category Label": "middle bin"}

Where would Cc1cc(-c2csc(NC3=NCCN3)n2)c[nH]1 land among the classes by reported inhibition?
bottom bin

Where would Cc1ccc2[nH]cc(-c3csc(NC(=N)NCc4ccccc4)n3)c2c1 land among the classes by reported inhibition?
top bin

Where would N=C(N)Nc1nc(-c2cc3ccccc3[nH]2)cs1 land among the classes by reported inhibition?
middle bin

Where would N=C(N)NCCc1c[nH]c2ccccc12 land among the classes by reported inhibition?
bottom bin

Where would N=C(N)Nc1nc(-c2c[nH]c(CN3CCCCC3)c2)cs1 land among the classes by reported inhibition?
bottom bin

Where would N=C(N)Nc1nc(-c2ccccc2)cs1 land among the classes by reported inhibition?
bottom bin

Where would N=C(NCc1ccccc1)Nc1nc(-c2ccc(F)cc2)cs1 land among the classes by reported inhibition?
bottom bin

Where would Cl.N=C(NCc1ccccc1)Nc1nc(-c2c[nH]c3ccc(Br)cc23)cs1 land among the classes by reported inhibition?
top bin

Where would Cc1cc(-c2nc(N=C(N)N)sc2C)c[nH]1 land among the classes by reported inhibition?
top bin

Where would COC(=O)c1ccc2[nH]cc(-c3csc(N=C(N)N)n3)c2c1 land among the classes by reported inhibition?
middle bin

Where would N=C(NCc1ccccc1)Nc1nc(-c2cc3cc(F)ccc3[nH]2)cs1 land among the classes by reported inhibition?
bottom bin

Where would Cc1cc(-c2csc(N=C(N)N)n2)cn1C land among the classes by reported inhibition?
middle bin

====

Items are presented alongside their recorded Activity.
- System: Rattus norvegicus
- Assay Overview: Gastric antisecretory activity against gastric secretion in the pylorus-ligated rat at a dose of 60 mg/Kg
- Assay type: functional, Stomach
All answers are understood in %, so give the number only.

Recorded Activity, per entry:
{"Smiles String": "Cc1[nH]c2ccccc2c1-c1nc(N=C(N)N)sc1C.Cl", "Activity [%]": 78}
{"Smiles String": "Cc1ccc2c(-c3csc(N=C(N)N)n3)c[nH]c2c1.Cl", "Activity [%]": 42}
{"Smiles String": "Cc1[nH]c2ccccc2c1-c1nc(NC(=N)NCc2ccccc2)sc1C.Cl", "Activity [%]": 69}

The compound COc1ccc2[nH]cc(-c3csc(NC(=N)NCc4ccccc4)n3)c2c1.Cl , tested on Rattus norvegicus, showed Activity of 48

The compound Cl.N=C(N)Nc1nc(-c2c[nH]c3ccc(Cl)cc23)cs1 , tested on Rattus norvegicus, showed Activity of 22

The compound Cc1sc(NC(=N)NCc2ccccc2)nc1-c1c[nH]c2ccc(Cl)cc12 , tested on Rattus norvegicus, showed Activity of -59

====

- Tested On: Potassium-transporting ATPase (Canis familiaris)
- Assay Overview: Inhibitory activity against dog gastric proton-pump enzyme H+/K+ ATPase
Readout Name: IC50 (µM)
All answers are understood in µM, so give the number only.

Recorded IC50, per entry:
{"Smiles String": "Cc1ccc(-c2csc(N=C(N)N)n2)n1S(=O)(=O)c1ccccc1", "Unit Of Measurement": "µM", "IC50": 7}
{"Smiles String": "N=C(N)Nc1nc(-c2cccc(O)c2)cs1", "Unit Of Measurement": "µM", "IC50": 23}
{"Smiles String": "Cc1[nH]c2ccccc2c1-c1csc(NC(=N)NCc2ccccc2)n1", "Unit Of Measurement": "µM", "IC50": 1.7}
{"Smiles String": "Cc1[nH]ccc1-c1nc(N=C(N)N)sc1C.Cl", "Unit Of Measurement": "µM", "IC50": 1.3}
{"Smiles String": "N=C(N)Nc1nc(-c2c[nH]c3ccccc23)cs1", "Unit Of Measurement": "µM", "IC50": 9}

IC50 for CN(C)c1ccc(-c2csc(N=C(N)N)n2)cc1 is 14

IC50 for Cc1sc(N=C(N)N)nc1-c1c[nH]c2ccccc12 is 7.6

IC50 for Cl.N=C(N)Nc1nc(-c2ccc(O)c(O)c2)cs1 is 1.5

IC50 for N/C(=N\Cc1ccccc1)Nc1nc(-c2ccc(N)cc2)cs1 is 5.2

IC50 for Cc1cccc2c(-c3csc(N=C(N)N)n3)c[nH]c12 is 7.6

IC50 for Cc1sc(N=C(N)N)nc1-c1ccn(S(=O)(=O)c2ccccc2)c1C is 4.2

IC50 for Cc1sc(N=C(N)NCc2ccccc2)nc1-c1c[nH]c2ccc(Cl)cc12 is 0.7

====

- Tested On: Potassium-transporting ATPase (Canis familiaris)
- Assay Overview: Inhibitory activity of gastric proton-pump enzyme H+/K+ ATPase was determined at 50 uM
Readout Name: IC50 (µM)
All answers are understood in µM, so give the number only.

The molecule Cc1[nH]c2ccccc2c1-c1nc(N=C(N)N)sc1C.Cl , tested on Potassium-transporting ATPase (Canis familiaris), showed IC50 of 6.2

The molecule CC(=O)Oc1ccc(-c2csc(N=C(N)N)n2)cc1OC(C)=O.Cl , tested on Potassium-transporting ATPase (Canis familiaris), showed IC50 of 27

The molecule Cc1[nH]c2ccccc2c1-c1nc(NC(=N)NCc2ccccc2)sc1C.Cl , tested on Potassium-transporting ATPase (Canis familiaris), showed IC50 of 5.3

The molecule N=C(N)Nc1nc2c(s1)CCc1ccccc1-2 , tested on Potassium-transporting ATPase (Canis familiaris), showed IC50 of 21

====

- Test system: Potassium-transporting ATPase (Canis familiaris)
- Assay Overview: Percent inhibition of gastric proton-pump enzyme H+/K+ ATPase was determined at 50 uM
- Applied Conditions: Canis lupus familiaris, Stomach
Readout Name: inhibition (%)
All answers are understood in %, so give the number only.

Recorded inhibition, per entry:
{"Smiles String": "N#Cc1ccc2[nH]cc(-c3csc(NC(=N)N)n3)c2c1", "Unit Of Measurement": "%", "inhibition": 80}
{"Smiles String": "Cc1[nH]ccc1-c1nc(NC(=N)NCc2ccccc2)sc1C", "Unit Of Measurement": "%", "inhibition": 80}
{"Smiles String": "Cc1ccccc1-c1csc(N=C(N)N)n1", "Unit Of Measurement": "%", "inhibition": 78}

inhibition for Cl.N/C(=N\Cc1ccccc1)Nc1nc(-c2ccc(O)c(O)c2)cs1 is 111

inhibition for Cc1ccc(-c2csc(N=C(N)N)n2)n1S(=O)(=O)c1ccccc1 is 91
